# Tested on: 454973-116-R2-J3-PDC spheroids, viability, % test/control;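 further: spheroids exposed to compounds for seven days; 100% = DMSO vehicle control viability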
# assay_summary: Anticancer human tumor 454973-116-R2-J3-PDC patient-derived pancreatic carcinoma cell line growth inhibition [GQUAD]
# applied_conditions: second compound 1 µM; first compound 1 µM; hits give low values; spheroids with HUVEC and MSC
// reported viability, T/C for each item listed
Quick note: give the figure in %, leave out the unit.

{"columns": ["compound", "viability, T/C (%)"],
 "data": [
  ["CC1COCCN1c1cc(C2(O)CC3CCC(C2)O3)c2cnn(-c3ccn[nH]3)c2n1 (stereo unspecified) + Cc1cnc(CNC(=O)c2c(=O)c3ccc(N4CCCN(C)CC4)nc3n3c2sc2ccccc23)cn1", 23.8],
  ["CC1COCCN1c1cc(-c2ccnn2C)c2ccnc(-c3ccn[nH]3)c2n1 (stereo unspecified) + Cc1cnc(CNC(=O)c2c(=O)c3ccc(N4CCCN(C)CC4)nc3n3c2sc2ccccc23)cn1", 24.2],
  ["COc1cc(C2c3cc4c(cc3C(OC3OC5COC(C)OC5C(O)C3O)C3COC(=O)C23)OCO4)cc(OC)c1O (stereo unspecified) + Cc1[nH]c2ccc(F)cc2c1-c1nc2c3cccnc3c3ncccc3c2[nH]1", 53.5],
  ["O=C(NO)c1cnc(N2CCN(S(=O)(=O)c3ccc4ccccc4c3)CC2)nc1 + Cc1[nH]c2ccc(F)cc2c1-c1nc2c3cccnc3c3ncccc3c2[nH]1", 8.33],
  ["CC(C)n1c(=O)n(C)c2cnc3cc(F)c(-c4ccc(OCCCN5CCCCC5)nc4)cc3c21 + Cc1[nH]c2ccc(F)cc2c1-c1nc2c3cccnc3c3ncccc3c2[nH]1", 93.3]
]}

Item: O=C(c1cc(Cc2n[nH]c(=O)c3ccccc23)ccc1F)N1CCN(C(=O)C2CC2)CC1 + Cc1[nH]c2ccc(F)cc2c1-c1nc2c3cccnc3c3ncccc3c2[nH]1 | viability, T/C: 88
